Measured EC50, listed per entry for reference.
Biological target: human TGR5 (Homo sapiens, UniProt Q8TDU6)
Construct: expressed in transfected cells; host or cells: HEK293
Sequence (Q8TDU6 1-330): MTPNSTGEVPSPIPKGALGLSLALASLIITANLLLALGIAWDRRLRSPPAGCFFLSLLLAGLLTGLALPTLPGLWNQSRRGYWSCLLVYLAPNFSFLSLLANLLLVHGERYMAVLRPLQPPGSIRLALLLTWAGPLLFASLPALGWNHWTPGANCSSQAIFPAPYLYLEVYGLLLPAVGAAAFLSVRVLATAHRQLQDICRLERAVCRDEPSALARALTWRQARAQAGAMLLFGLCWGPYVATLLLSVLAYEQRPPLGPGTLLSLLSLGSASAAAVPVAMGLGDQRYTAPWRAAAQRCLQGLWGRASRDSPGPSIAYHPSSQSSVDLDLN
Assay: Cell-based TGR5 assay (cAMP generation, HTRF)
Conditions: HEK293 cells stably transfected with human TGR5; cAMP by HTRF; 30 minutes at 37° C.; read-out: pEC50 Human TGR5 (converted)

1) Cc1cc(COC2(c3cnccc3-c3ccccc3OC3CC3)CC2)c(Cl)cc1CCCCN(CCO)C(=O)NC[C@H](O)[C@@H](O)[C@H](O)[C@H](O)CO : 126 to 1000 nM

Query O=C(NC[C@H](O)[C@@H](O)[C@H](O)[C@H](O)CO)N(CCCCc1cc(Cl)c(COC2(c3cnccc3-c3ccccc3OC3CC3)CC2)cc1Cl)CCOCCO yields EC50 of < 100 nM

Query O=C(CCCC1CN(S(=O)(=O)c2ccc(Cl)c(COC3(c4cnccc4-c4ccccc4OC4CC4)CC3)c2)C1)NC[C@H](O)[C@@H](O)[C@H](O)[C@H](O)CO yields EC50 of < 100 nM

Query O=C(CCCCc1cc(Cl)c(COC2(c3cnccc3-c3ccccc3OC3CC3)CC2)cc1Cl)NCCOCCOCCOCCNC(=O)CCCCc1cc(Cl)c(COC2(c3cnccc3-c3ccccc3OC3CC3)CC2)cc1Cl yields EC50 of 126 to 1000 nM

Query O=C([C@@H](O)[C@@H](O)[C@H](O)[C@@H](O)CO)N(CCCCSc1ccc(Cl)c(COC2(c3cnccc3-c3ccccc3OC3CC3)CC2)c1)CCN1CCS(=O)(=O)CC1 yields EC50 of 126 to 1000 nM

Query Cc1ccc(SCCCN(CCCCO)C(=O)[C@@H](O)[C@@H](O)[C@H](O)[C@@H](O)CO)cc1COC1(c2cnccc2-c2ccccc2OC2CC2)CC1 yields EC50 of 126 to 1000 nM

Query CC(CCCNC(=O)NC[C@H](O)[C@@H](O)[C@H](O)[C@H](O)CO)c1ccc(Cl)c(CNC2(c3cnccc3-c3ccccc3OC3CC3)CC2)c1 (stereo partly shown) yields EC50 of < 100 nM

Query C[C@@H](CCCN)c1ccc(Cl)c(CNC2(c3cnccc3-c3ccccc3OC3CC3)CC2)c1 (single isomer, unassigned) yields EC50 of < 100 nM

Query O=C(CCCSc1ccc(Cl)c(COC2(c3cnccc3-c3ccccc3OC3CC3)CC2)c1)N(C[C@@H](O)[C@H](O)[C@@H](O)[C@@H](O)CO)[C@H]1CC[C@@H](O)CC1 yields EC50 of 126 to 1000 nM

Query CN(CCCCNC(=O)N[C@@H](CO)[C@@H](O)[C@H](O)[C@H](O)CO)S(=O)(=O)c1ccc(C(F)(F)F)c(CNC2(c3cnccc3-c3ccccc3OC3CC3)CC2)c1 yields EC50 of 126 to 1000 nM

Query CC(CCSc1ccc(Cl)c(COC2(c3cnccc3-c3ccccc3OC3CC3)CC2)c1)C(=O)NC[C@H](O)[C@@H](O)[C@H](O)[C@H](O)CO (stereo partly shown) yields EC50 of < 100 nM

Query CC(=O)N(CCCC(C)c1ccc(Cl)c(CNC2(c3cnccc3-c3ccccc3OC3CC3)CC2)c1)C[C@H](O)[C@@H](O)[C@H](O)[C@H](O)CO (stereo partly shown) yields EC50 of < 100 nM

Query O=C(NCCOCCNS(=O)(=O)c1ccc(Cl)c(COC2(c3cnccc3-c3ccccc3OC3CC3)CC2)c1)N[C@@H](CO)[C@@H](O)[C@H](O)[C@H](O)CO (stereo in doubt) yields EC50 of < 100 nM
